// Homeodomain-interacting protein kinase 1 (Homo sapiens, UniProt Q86Z02) pIC50 records
By convention, pIC50 is the negative base-10 log of a molar concentration.

CN1C(=O)[C@@H](N2CCc3cn(Cc4ccccc4)nc3C2=O)COc2ccccc21 | 6.00

Now look at this one.
*Q* Query for Homeodomain-interacting protein kinase 1 (Homo sapiens, UniProt Q86Z02): what pIC50 does the record show for CN1C(=O)[C@@H](N2CCc3cn(CC4CCS(=O)(=O)CC4)nc3C2=O)COc2ccccc21 [TP-030n] ?
*A* 6.00

* * *

- target_system: UniProt:Q13470
- Sequence (Q13470 whole entry): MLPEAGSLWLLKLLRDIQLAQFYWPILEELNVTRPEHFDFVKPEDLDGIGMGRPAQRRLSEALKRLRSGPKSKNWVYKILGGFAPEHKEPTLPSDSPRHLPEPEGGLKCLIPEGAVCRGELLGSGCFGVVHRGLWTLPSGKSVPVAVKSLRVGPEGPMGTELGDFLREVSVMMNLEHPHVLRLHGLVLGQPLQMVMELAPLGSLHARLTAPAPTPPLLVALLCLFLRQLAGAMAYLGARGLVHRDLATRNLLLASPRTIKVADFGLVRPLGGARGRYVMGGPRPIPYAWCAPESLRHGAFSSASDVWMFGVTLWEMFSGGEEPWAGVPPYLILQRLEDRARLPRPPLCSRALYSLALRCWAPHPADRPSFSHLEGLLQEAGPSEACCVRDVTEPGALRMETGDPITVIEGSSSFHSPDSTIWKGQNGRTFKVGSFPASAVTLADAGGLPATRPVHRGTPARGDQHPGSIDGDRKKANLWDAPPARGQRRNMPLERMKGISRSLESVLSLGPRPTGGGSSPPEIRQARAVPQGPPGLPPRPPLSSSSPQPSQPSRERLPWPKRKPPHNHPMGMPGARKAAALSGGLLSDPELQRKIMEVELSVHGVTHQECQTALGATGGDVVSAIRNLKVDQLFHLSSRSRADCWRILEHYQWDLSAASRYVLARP
property: IC50 (nM)
Just the number please, in nM, no unit attached.

*Q* Which measured IC50 value corresponds to `CN1C(=O)[C@@H](N2CCc3cn(Cc4ccccc4)nc3C2=O)COc2ccccc21` ?
*A* 1000

*Q* Which measured IC50 value corresponds to CN1C(=O)[C@@H](N2CCc3cn(CC4CCS(=O)(=O)CC4)nc3C2=O)COc2ccccc21 [TP-030n] ?
*A* 1000

Data provenance is ChEMBL document CHEMBL4507327.
